# testDetails: Phase I open-label single-dose crossover oral bioavailability / PK test of bedoradrine sulfate in healthy volunteers
# Assay type: in vivo, human
# assaySetup: human two, in vivo, po, 600 ug, Cmax, individual subject
# Description: The test was an open-label, randomized, crossover, single dose test of 600 μg (0.6 mg) bedoradrine sulfate in liquid form administered orally and of 300 μg (0.3 mg) bedoradrine sulfate administered by i.v. infusion. […] The limit of quantitation (LLOQ) for these methods was 30.3 picogram (pg)/mL. […] All plasma concentrations below the limit of quantitation (BLQ) values occurring at predose and up to the first measurable concentration may otherwise be imputed as 1 pg/mL in some analyses or LLOQ. […]
Counter-ions that a name gives are not always drawn.
endpointName: Cmax (ng/mL)
Give bare numbers, in ng/mL.

Which Cmax value belongs to CN(C)C(=O)COc1ccc2c(c1)C[C@@H](NC[C@H](O)c1ccc(O)c(CCO)c1)CC2 [MN-221, bedoradrine sulfate] ? 0.163
